# Test system: poly(rA)-poly(rU) (RNA, polymer) A/U
# EXPERIMENT: UV thermal melting at 260 nm
# APPLIED_CONDITIONS: Na+ (sodium cacodylate buffer, I=0.05 M); pH 7.0; r=[compound]/[polynucleotide]=0.1; per base
ΔT m reference
QUANTITY_NAME: ΔT m

MOL | SYSTEM_UNDER_TEST | QUANTITY_NAME | RESULT
Cc1cc(C#Cc2c3ccccc3c(C#Cc3cc(C)c(B(c4c(C)cc([N+](C)(C)C)cc4C)c4c(C)cc([N+](C)(C)C)cc4C)c(C)c3)c3ccccc23)cc(C)c1B(c1c(C)cc([N+](C)(C)C)cc1C)c1c(C)cc([N+](C)(C)C)cc1C | poly(rA)-poly(rU) (RNA, polymer) A/U | ΔT m | 8 ± 0.5 °C
Cc1cc([N+](C)(C)C)cc(C)c1B(c1c(C)cc([N+](C)(C)C)cc1C)c1c2ccccc2c(B(c2c(C)cc([N+](C)(C)C)cc2C)c2c(C)cc([N+](C)(C)C)cc2C)c2ccccc12 | poly(rA)-poly(rU) (RNA, polymer) A/U | ΔT m | 0 ± 0.5 °C
Cc1cc(C#Cc2ccc(C#Cc3cc(C)c(B(c4c(C)cc([N+](C)(C)C)cc4C)c4c(C)cc([N+](C)(C)C)cc4C)c(C)c3)cc2)cc(C)c1B(c1c(C)cc([N+](C)(C)C)cc1C)c1c(C)cc([N+](C)(C)C)cc1C | poly(rA)-poly(rU) (RNA, polymer) A/U | ΔT m | 9 ± 0.5 °C
Cc1cc(C#Cc2ccc(-c3ccc(C#Cc4cc(C)c(B(c5c(C)cc([N+](C)(C)C)cc5C)c5c(C)cc([N+](C)(C)C)cc5C)c(C)c4)s3)s2)cc(C)c1B(c1c(C)cc([N+](C)(C)C)cc1C)c1c(C)cc([N+](C)(C)C)cc1C | poly(rA)-poly(rU) (RNA, polymer) A/U | ΔT m | 7 ± 0.5 °C
